Provide the reported Inhibition of ligand binding, Ser. 5-HT7 of each item.
- target.entity: Serotonin (5-Hydroxytryptamine) 5-HT7 (Homo sapiens, UniProt P34969)
- Construct: expressed in transfected cells; host or cells: CHO cells
- Sequence (P34969 whole entry): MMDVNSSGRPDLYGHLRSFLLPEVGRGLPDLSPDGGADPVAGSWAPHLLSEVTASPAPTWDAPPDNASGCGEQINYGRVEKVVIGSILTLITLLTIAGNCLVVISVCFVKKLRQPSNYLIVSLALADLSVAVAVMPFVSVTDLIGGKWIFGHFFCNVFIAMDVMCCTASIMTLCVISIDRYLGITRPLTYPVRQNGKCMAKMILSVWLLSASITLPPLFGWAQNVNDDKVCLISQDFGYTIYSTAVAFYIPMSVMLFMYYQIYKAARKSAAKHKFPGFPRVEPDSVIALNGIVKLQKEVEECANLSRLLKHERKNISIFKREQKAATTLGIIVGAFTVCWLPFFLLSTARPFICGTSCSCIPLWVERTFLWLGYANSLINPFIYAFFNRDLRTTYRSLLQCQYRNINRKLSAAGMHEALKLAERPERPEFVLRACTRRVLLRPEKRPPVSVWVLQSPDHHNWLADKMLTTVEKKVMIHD
- test.description: Serotonin 5-HT7 radioligand binding ([3H]LSD)
- Set-up: concentration or dose not given beside the values
- measurement.conditions: percent inhibition of specific binding
One number for each entry, in %.

Solved cases (8 shown):
[[record]]
molecule = "CN1CCc2c(c3cc(Cl)ccc3n2CCc2ccc(Cl)cc2)C1"
target_entity = "Serotonin (5-Hydroxytryptamine) 5-HT7 (Homo sapiens, UniProt P34969)"
measured_parameter = "Inhibition of ligand binding, Ser. 5-HT7"
readout_number = 99

[[record]]
molecule = "Cc1ccc2c(c1)c1c(n2CCc2ccc(C)nc2)C(Br)C(=O)N(C)C1 (stereo not drawn)"
target_entity = "Serotonin (5-Hydroxytryptamine) 5-HT7 (Homo sapiens, UniProt P34969)"
measured_parameter = "Inhibition of ligand binding, Ser. 5-HT7"
readout_number = 6

[[record]]
molecule = "Cc1ccc2c(c1)c1c(n2CCC2CCCCC2)CCN(C)C1"
target_entity = "Serotonin (5-Hydroxytryptamine) 5-HT7 (Homo sapiens, UniProt P34969)"
measured_parameter = "Inhibition of ligand binding, Ser. 5-HT7"
readout_number = 95

[[record]]
molecule = "CN1CCc2c(c3cc(Cl)ccc3n2CCc2ccccc2)C1"
target_entity = "Serotonin (5-Hydroxytryptamine) 5-HT7 (Homo sapiens, UniProt P34969)"
measured_parameter = "Inhibition of ligand binding, Ser. 5-HT7"
readout_number = 99

[[record]]
molecule = "CN1CCc2c(c3ccccc3n2CCc2ccncc2)C1"
target_entity = "Serotonin (5-Hydroxytryptamine) 5-HT7 (Homo sapiens, UniProt P34969)"
measured_parameter = "Inhibition of ligand binding, Ser. 5-HT7"
readout_number = 73

[[record]]
molecule = "Cc1ccc2c(c1)c1c(n2CCc2ccccc2)CC(O)N(C)C1=O (stereo not drawn)"
target_entity = "Serotonin (5-Hydroxytryptamine) 5-HT7 (Homo sapiens, UniProt P34969)"
measured_parameter = "Inhibition of ligand binding, Ser. 5-HT7"
readout_number = 10

[[record]]
molecule = "Cc1ccc(Cn2c3c(c4ccccc42)CN(C)CC3)cn1"
target_entity = "Serotonin (5-Hydroxytryptamine) 5-HT7 (Homo sapiens, UniProt P34969)"
measured_parameter = "Inhibition of ligand binding, Ser. 5-HT7"
readout_number = 7

[[record]]
molecule = "CN1CCc2c(c3cc(C(F)(F)F)ccc3n2CCc2ccccc2)C1"
target_entity = "Serotonin (5-Hydroxytryptamine) 5-HT7 (Homo sapiens, UniProt P34969)"
measured_parameter = "Inhibition of ligand binding, Ser. 5-HT7"
readout_number = 92


Proceed to the following item.
INPUT: Recorded Inhibition of ligand binding, Ser. 5-HT7 for CN1CCc2c(c3cc(Cl)ccc3n2CCc2ccccn2)C1 , please?
OUTPUT: 99

Origin of measurements: patent US9096591B2
